FYI, the data here is from paper PMC10218234.

- Tested on: K562 cells
- ASSAY_OVERVIEW: MTT anti-proliferative assay, K562
- Format: cell-based
- CONDITION_NOTES: Homo sapiens, Table 2, 48 h, read-out: IC50 ± SD, K562
- Experimental: The antiproliferative activity of the target indazole derivatives was evaluated against a panel of human cancer cell lines (human chronic myeloid leukemia cell lines K562; human lung cancer cell lines A549; human prostate cancer cell lines PC-3; human hepatoma cell lines HepG-2) in vitro, and human embryonic kidney cell lines HEK-293 were used to evaluate the cytotoxicity of a normal cell with high activity derivatives by MTT assay. […]
# note: exactly 10 µM is not below, so it is Not satisfied; use Satisfied for IC50 strictly under it

1) N#Cc1ccc(N2CCN(CC(=O)Nc3n[nH]c4ccc(-c5ccc(Cl)c(Cl)c5)cc34)CC2)cc1 [6t] : Not satisfied
2) COc1ccc(-c2ccc3[nH]nc(NC(=O)CN4CCN(Cc5ccc(Cl)cc5)CC4)c3c2)cc1 [6e] : Satisfied
3) COc1ccc(-c2ccc3[nH]nc(NC(=O)CN4CCN(c5ccc(C(F)(F)F)cc5)CC4)c3c2)cc1 [6d] : Not satisfied
4) COc1ccc(-c2ccc3[nH]nc(NC(=O)CN4CCN(c5ccc(Cl)c(Cl)c5)CC4)c3c2)cc1 [6b] : Not satisfied
5) COc1ccc(N2CCN(CC(=O)Nc3n[nH]c4ccc(-c5ccc(Cl)c(F)c5)cc34)CC2)cc1 [6n] : Not satisfied
6) O=C(CN1CCN(c2ccc(F)cc2F)CC1)Nc1n[nH]c2ccc(-c3ccc(Cl)c(Cl)c3)cc12 [6q] : Satisfied
7) O=C(CN1CCN(c2ccc(C(F)(F)F)cc2)CC1)Nc1n[nH]c2ccc(-c3cc(F)cc(F)c3)cc12 [6g] : Satisfied
8) O=C(CN1CCN(c2ccc(Cl)c(Cl)c2)CC1)Nc1n[nH]c2ccc(-c3ccc(Cl)c(F)c3)cc12 [6m] : Not satisfied

* * *

// reported pIC50 per item
- Tested on: K562 cells
- ASSAY_OVERVIEW: MTT anti-proliferative assay, K562
- Type: cell-based
- CONDITION_NOTES: Homo sapiens, Table 1, 48 h, read-out: IC50 ± SD, K562
- Description: The antiproliferative activity of the target indazole derivatives was evaluated against a panel of human cancer cell lines (human chronic myeloid leukemia cell lines K562; human lung cancer cell lines A549; human prostate cancer cell lines PC-3; human hepatoma cell lines HepG-2) in vitro, and human embryonic kidney cell lines HEK-293 were used to evaluate the cytotoxicity of a normal cell with high activity derivatives by MTT assay. […]
pIC50: −log10 of the molar value.
MEASUREMENT_KIND: pIC50

1. O=C(CSc1ccncc1)Nc1n[nH]c2ccc(-c3cc(F)cc(F)c3)cc12 : 4.81
2. O=C(CSc1ccccc1Br)Nc1n[nH]c2ccc(-c3cccc(F)c3)cc12 : 4.56
3. O=C(CSc1ccc(Cl)cc1)Nc1n[nH]c2ccc(-c3cc(F)cc(F)c3)cc12 : 4.88
4. COc1ccc(SCC(=O)Nc2n[nH]c3ccc(-c4cccc(F)c4)cc23)cc1 : 5.03

* * *

MEASUREMENT_KIND: melting point

1. COc1ccc(-c2ccc3[nH]nc(NC(=O)CN4CCN(c5ccc(Cl)c(Cl)c5)CC4)c3c2)cc1 [6b] : 200 to 201 °C
2. O=C(CN1CCN(c2ccccc2Cl)CC1)Nc1n[nH]c2ccc(-c3ccc(Cl)c(F)c3)cc12 [6p] : 163 to 165 °C
3. O=C(CN1CCN(c2ccc(F)cc2F)CC1)Nc1n[nH]c2ccc(-c3ccc(Cl)c(Cl)c3)cc12 [6q] : 160 to 162 °C
4. COc1ccc(-c2ccc3[nH]nc(NC(=O)CN4CCN(Cc5ccc(Cl)cc5)CC4)c3c2)cc1 [6e] : 140 to 141 °C
5. O=C(CN1CCN(c2ccc(Br)cc2)CC1)Nc1n[nH]c2ccc(-c3cc(F)cc(F)c3)cc12 [6i] : 184 to 186 °C
6. N#Cc1ccc(N2CCN(CC(=O)Nc3n[nH]c4ccc(-c5ccc(Cl)c(Cl)c5)cc34)CC2)cc1 [6t] : 194 to 197 °C
7. O=C(CN1CCN(c2ccncc2)CC1)Nc1n[nH]c2ccc(-c3ccc(Cl)c(Cl)c3)cc12 [6u] : 195 to 197 °C
8. O=C(CN1CCN(c2ccc(Cl)cc2)CC1)Nc1n[nH]c2ccc(-c3ccc(Cl)c(Cl)c3)cc12 [6s] : 179 to 182 °C

* * *

// reported IC50 per item
- Tested on: Hep-G2 cells
- ASSAY_OVERVIEW: MTT anti-proliferative assay, Hep-G2
- Format: cell-based
- CONDITION_NOTES: Homo sapiens, HepG2, 48 h, Table 1, 48 h, read-out: IC50 ± SD, Hep-G2
MEASUREMENT_KIND: IC50 (µM)

1. O=C(CSc1ccc(Br)cc1)Nc1n[nH]c2ccc(-c3cccc(F)c3)cc12 : 4.76
2. O=C(CSc1ccncc1)Nc1n[nH]c2ccc(-c3cc(F)cc(F)c3)cc12 : 7.14
3. O=C(CSc1ncccn1)Nc1n[nH]c2ccc(-c3cc(F)cc(F)c3)cc12 : 6.3
4. O=C(CSc1ccccc1Br)Nc1n[nH]c2ccc(-c3cc(F)cc(F)c3)cc12 : 14.9
5. O=c1[nH]cc(F)c(=O)[nH]1 [5-Fu, 5-fluorouracil, reference compound] : 9.78
6. O=C(CSc1cccc(Cl)c1)Nc1n[nH]c2ccc(-c3cc(F)cc(F)c3)cc12 : 6.57
7. O=C(CSc1ccc([N+](=O)[O-])cc1)Nc1n[nH]c2ccc(-c3ccc(Cl)c(F)c3)cc12 : 5.5
8. O=C(CSc1ccc(F)cc1)Nc1n[nH]c2ccc(-c3ccc(Cl)c(F)c3)cc12 : 11.9

* * *

- ASSAY_OVERVIEW: MTT cytotoxicity to normal cells, HEK-293
- Assay type: cell-based, human
- CONDITION_NOTES: human, HEK-293 cells (normal human embryonic kidney cells); normal cell HEK-293; MTT; read-out: IC50 ± SD, HEK-293
MEASUREMENT_KIND: IC50 at 48 h (µM)

1. O=c1[nH]cc(F)c(=O)[nH]1 [5-Fu, 5-fluorouracil, reference compound] : 1.16
2. O=C(CSc1ccc(Br)cc1)Nc1n[nH]c2ccc(-c3cc(F)cc(F)c3)cc12 : 12.2
3. O=C(CN1CCN(c2ccc(C(F)(F)F)cc2)CC1)Nc1n[nH]c2ccc(-c3ccc(Cl)c(F)c3)cc12 : 33.2

* * *

// reported IC50 per item
- System: K562 cells
- ASSAY_OVERVIEW: MTT anti-proliferative assay, K562
- Assay type: cell-based
- CONDITION_NOTES: Homo sapiens, Table 1, 48 h, read-out: IC50 ± SD, K562
MEASUREMENT_KIND: IC50

1. O=C(CSc1cccc(Cl)c1)Nc1n[nH]c2ccc(-c3cc(F)cc(F)c3)cc12 : 7.25 µM
2. O=C(CSc1ccc(F)cc1)Nc1n[nH]c2ccc(-c3ccc(Cl)c(F)c3)cc12 : 10.3 µM
3. O=c1[nH]cc(F)c(=O)[nH]1 [5-Fu, 5-fluorouracil, reference compound] : 8.53 µM
4. O=C(CSc1ncccn1)Nc1n[nH]c2ccc(-c3cc(F)cc(F)c3)cc12 : 14.3 µM

* * *

- System: Hep-G2 cells
- ASSAY_OVERVIEW: MTT anti-proliferative assay, Hep-G2
- Type: cell-based
- CONDITION_NOTES: Homo sapiens, HepG2, 48 h, Table 1, 48 h, read-out: IC50 ± SD, Hep-G2
# note: exactly 8 µM is not below, so it is n; use y for IC50 strictly under it

1) O=C(CSc1ccc(Br)cc1)Nc1n[nH]c2ccc(-c3ccc(Cl)c(F)c3)cc12 : n
2) O=C(CSc1ccc(Br)cc1)Nc1n[nH]c2ccc(-c3cc(F)cc(F)c3)cc12 : y
3) COc1ccc(SCC(=O)Nc2n[nH]c3ccc(-c4cc(F)cc(F)c4)cc23)cc1 : y
4) O=C(CSc1ccccc1Br)Nc1n[nH]c2ccc(-c3cccc(F)c3)cc12 : n
5) O=C(CSc1ccc(Cl)cc1)Nc1n[nH]c2ccc(-c3cc(F)cc(F)c3)cc12 : n
6) COc1ccc(SCC(=O)Nc2n[nH]c3ccc(-c4cccc(F)c4)cc23)cc1 : n
7) COc1ccc(SCC(=O)Nc2n[nH]c3ccc(-c4ccc(OC(F)(F)F)cc4)cc23)cc1 : n
8) O=C(CSc1ccc([N+](=O)[O-])cc1)Nc1n[nH]c2ccc(-c3cc(F)cc(F)c3)cc12 : n

* * *

// reported melting point per item
MEASUREMENT_KIND: melting point

1) O=C(CN1CCN(c2ccccc2)CC1)Nc1n[nH]c2ccc(-c3cc(F)cc(F)c3)cc12 : 180 to 182 °C
2) COc1ccc(-c2ccc3[nH]nc(NC(=O)CN4CCN(c5ccc(OC)cc5)CC4)c3c2)cc1 : 188 to 189 °C
3) O=C(CN1CCN(c2ccc(C(F)(F)F)cc2)CC1)Nc1n[nH]c2ccc(-c3cc(F)cc(F)c3)cc12 : 170 to 171 °C
4) O=C(CSc1cccc(Cl)c1)Nc1n[nH]c2ccc(-c3cc(F)cc(F)c3)cc12 : 193 to 194 °C
